Attribution: patent US20170059576

- Experimental Target: c-Met ectodomain-Fc fusion (HGFR) (UniProt P08581 P08581:25-932)
- Sequence (P08581 25-932, one chain of several): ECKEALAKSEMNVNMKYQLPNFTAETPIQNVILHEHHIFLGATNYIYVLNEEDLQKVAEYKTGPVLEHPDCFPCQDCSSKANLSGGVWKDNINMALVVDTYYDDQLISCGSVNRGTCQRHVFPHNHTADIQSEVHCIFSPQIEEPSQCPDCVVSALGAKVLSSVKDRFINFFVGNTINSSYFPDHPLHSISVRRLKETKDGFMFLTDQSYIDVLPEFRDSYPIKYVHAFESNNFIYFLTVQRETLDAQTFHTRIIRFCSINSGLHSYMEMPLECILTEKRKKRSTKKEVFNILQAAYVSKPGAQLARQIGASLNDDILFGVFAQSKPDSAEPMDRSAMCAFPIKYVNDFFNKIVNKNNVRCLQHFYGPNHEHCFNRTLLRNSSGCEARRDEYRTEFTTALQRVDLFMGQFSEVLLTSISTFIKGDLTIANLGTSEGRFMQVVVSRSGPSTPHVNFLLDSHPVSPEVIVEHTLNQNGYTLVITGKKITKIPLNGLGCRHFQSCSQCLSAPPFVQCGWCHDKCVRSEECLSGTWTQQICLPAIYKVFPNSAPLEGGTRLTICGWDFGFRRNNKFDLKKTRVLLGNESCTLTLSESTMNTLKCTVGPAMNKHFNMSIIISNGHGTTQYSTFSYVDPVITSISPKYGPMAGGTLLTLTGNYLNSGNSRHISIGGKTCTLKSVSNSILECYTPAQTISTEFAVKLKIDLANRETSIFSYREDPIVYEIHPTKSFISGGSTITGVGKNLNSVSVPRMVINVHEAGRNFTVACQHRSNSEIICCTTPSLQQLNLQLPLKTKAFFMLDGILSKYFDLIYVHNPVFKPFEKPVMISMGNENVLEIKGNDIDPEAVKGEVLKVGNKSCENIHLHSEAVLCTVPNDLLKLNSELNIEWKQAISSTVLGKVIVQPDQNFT
- Test Details: filter; competition vs 32P-trCLN3; PBS pH 7.4, 3 mM MgCl2, tRNA, BSA, 37 C; nanomolar affinity stated
- Assay Setup: tags: human IgG1 Fc fusion; His (detected with anti-penta-His); R&D Systems; chain copies: 2; label: 5'-32P for radiolabeled tracer; G4 (two G-quadruplexes)
Observable: pIC50
Note on pIC50: it is the negative log10 of concentration, concentration in mol/L.

For the binder TGGATGGTAGCTCGGTCGGGGTGGGTGGGTTGGCAAGTCT (ssDNA) [trCLN3] , what pIC50 is on record? 7.12
